Sourced from ChEMBL document CHEMBL3407472

I'd appreciate it if you could supply bioavailability values for the items below.
- protocol text: Bioavailability in rat at 5 mg/kg, po and 2 mg/kg, iv
- Type: ADME, organism-based
- study conditions: in vivo
One number for each entry, in %.

See these solved cases before continuing.
CCOc1nc(NC(=O)C2(NC(=O)c3ccc4c(c3)c(C)c(-c3ccc(F)cn3)n4C3CCCCC3)CCC2)ccc1/C=C/C(=O)O; 36
CCOc1nc(NC(=O)C2(NC(=O)c3ccc4c(C5CCCC5)c(-c5ccc(F)cn5)n(C)c4c3)CCC2)ccc1/C=C/C(=O)O; 44

Attention now shifts to the item below.
Task: Look at this compound and give its reported bioavailability. CCOc1nc(NC(=O)C(C)(C)NC(=O)c2ccc3c(C4CCCC4)c(-c4ccc(F)cn4)n(C)c3c2)ccc1/C=C/C(=O)O
Result: 71

* * *

- protocol text: AUC in rat at 5 mg/kg, po and 2 mg/kg, iv
- Type: ADME, organism-based
- study conditions: plasma
measurement name: AUC (µM·h)
Give bare numbers, in µM·h.

See these solved cases before continuing.
CCOc1nc(NC(=O)C2(NC(=O)c3ccc4c(C5CCCC5)c(-c5ccc(F)cn5)n(C)c4c3)CCC2)ccc1/C=C/C(=O)O; 11
CCOc1nc(NC(=O)C2(NC(=O)c3ccc4c(c3)c(C)c(-c3ccc(F)cn3)n4C3CCCCC3)CCC2)ccc1/C=C/C(=O)O; 11

Attention now shifts to the item below.
Task: Look at this compound and give its reported AUC. CCOc1nc(NC(=O)C(C)(C)NC(=O)c2ccc3c(C4CCCC4)c(-c4ccc(F)cn4)n(C)c3c2)ccc1/C=C/C(=O)O
Result: 7.2

* * *

- protocol text: Ratio of drug uptake in liver to plasma of rat at 5 mg/kg, po and 2 mg/kg, iv after 6 to 8 hrs
- Format: ADME, organism-based
I'd appreciate it if you could supply Kp values for the items below.
One number for each entry.

See these solved cases before continuing.
CCOc1nc(NC(=O)C2(NC(=O)c3ccc4c(C5CCCC5)c(-c5ccc(F)cn5)n(C)c4c3)CCC2)ccc1/C=C/C(=O)O; 6
CCOc1nc(NC(=O)C2(NC(=O)c3ccc4c(c3)c(C)c(-c3ccc(F)cn3)n4C3CCCCC3)CCC2)ccc1/C=C/C(=O)O; 4

Task: Look at this molecule and give its reported Kp. CCOc1nc(NC(=O)C(C)(C)NC(=O)c2ccc3c(C4CCCC4)c(-c4ccc(F)cn4)n(C)c3c2)ccc1/C=C/C(=O)O
Result: 13.5

* * *

- assay system: GABA-A receptor; agonist GABA site
- protocol text: Inhibition of GABAA receptor (unknown origin)
pIC50: −log10 of the molar value.
measurement name: pIC50

Task: Which pIC50 is reported with GABA-A receptor; agonist GABA site for this entry: Cn1c(-c2ccccn2)c(C2CCCC2)c2ccc(C(=O)NC3(C(=O)Nc4ccc(/C=C/C(=O)O)cc4)CCC3)cc21 ?
Result: > 5.00

* * *

- protocol text: AUC in dog at 5 mg/kg, po and 2 mg/kg, iv
- Format: ADME, organism-based, Canis lupus familiaris
- study conditions: plasma
measurement name: AUC (µM·h)
Answers are plain numbers, in µM·h.

See these solved cases before continuing.
CCOc1nc(NC(=O)C2(NC(=O)c3ccc4c(C5CCCC5)c(-c5ccc(F)cn5)n(C)c4c3)CCC2)ccc1/C=C/C(=O)O; 48
CCOc1nc(NC(=O)C(C)(C)NC(=O)c2ccc3c(C4CCCC4)c(-c4ccc(F)cn4)n(C)c3c2)ccc1/C=C/C(=O)O; 21

Attention now shifts to the item below.
Task: Look at this molecule and give its reported AUC. CCOc1nc(NC(=O)C2(NC(=O)c3ccc4c(c3)c(C)c(-c3ccc(F)cn3)n4C3CCCCC3)CCC2)ccc1/C=C/C(=O)O
Result: 26

* * *

- Tested on: Hepatitis C virus
- protocol text: Antiviral activity against Hepatitis C virus genotype 1b infected in human Huh cells assessed as inhibition of viral replication by RT-PCR-based replicon assay
- Format: functional, cell-based, Hepacivirus hominis
I'd appreciate it if you could supply EC50 values for the items below.
Give bare numbers, in nM.

See these solved cases before continuing.
CCOc1nc(NC(=O)C(C)(C)NC(=O)c2ccc3c(C4CCCC4)c(-c4ccc(Cl)cn4)n(C)c3c2)cnc1/C=C/C(=O)O; 6
CCOc1nc(NC(=O)C2(NC(=O)c3ccc4c(C5CCCC5)c(-c5cncnc5)n(C)c4c3)CCCC2)cnc1/C=C/C(=O)O; 18
COc1nc(NC(=O)C2(NC(=O)c3ccc4c(C5CCCC5)c(-c5ncc(Br)cn5)n(C)c4c3)CCC2)cnc1/C=C/C(=O)O; 116

The following compounds each have a reported value; give each one's EC50.
1. COc1nc(NC(=O)C2(NC(=O)c3ccc4c(C5CCCC5)c(-c5cncnc5)n(C)c4c3)CCC2)ccc1/C=C/C(=O)O
2. CCOc1nc(NC(=O)C2(NC(=O)c3ccc4c(C5CCCC5)c(-c5ccc(Cl)cn5)n(C)c4c3)CCCC2)cnc1/C=C/C(=O)O
3. COc1nc(NC(=O)C(C)(C)NC(=O)c2ccc3c(C4CCCC4)c(-c4cncnc4)n(C)c3c2)ccc1/C=C/C(=O)O
4. COc1nc(NC(=O)C(C)(C)NC(=O)c2ccc3c(C4CCCC4)c(-c4ccc(Cl)cn4)n(C)c3c2)ccc1/C=C/C(=O)O

Result:
50
13
23
12

The following compounds each have a reported value; give each one's EC50.
1. CCOc1nc(NC(=O)C2(NC(=O)c3ccc4c(C5CCCC5)c(-c5ncc(Cl)cn5)n(C)c4c3)CCCC2)cnc1/C=C/C(=O)O
2. CCOc1nc(NC(=O)C2(NC(=O)c3ccc4c(C5CCCC5)c(-c5ccc(Cl)cn5)n(C)c4c3)CCCC2)ccc1/C=C/C(=O)O
3. COc1nc(NC(=O)C(C)(C)NC(=O)c2ccc3c(C4CCCC4)c(-c4ccc(F)cn4)n(C)c3c2)cnc1/C=C/C(=O)O
4. CCOc1nc(NC(=O)C(C)(C)NC(=O)c2ccc3c(C4CCCC4)c(-c4cnccn4)n(C)c3c2)cnc1/C=C/C(=O)O

Result:
[6, 4, 26, 36]

The following compounds each have a reported value; give each one's EC50.
1. COc1nc(NC(=O)C(C)(C)NC(=O)c2ccc3c(c2)c(C)c(-c2ccc(F)cn2)n3C2CCCCC2)cnc1/C=C/C(=O)O
2. COc1nc(NC(=O)C(C)(C)NC(=O)c2ccc3c(C4CCCC4)c(-c4ncc(Cl)cn4)n(C)c3c2)cnc1/C=C/C(=O)O
3. COc1nc(NC(=O)C2(NC(=O)c3ccc4c(C5CCCC5)c(-c5ccccn5)n(C)c4c3)CCC2)cnc1/C=C/C(=O)O
4. COc1nc(NC(=O)C2(NC(=O)c3ccc4c(C5CCCC5)c(-c5ncc(Cl)cn5)n(C)c4c3)CCC2)cnc1/C=C/C(=O)O

Result:
1: 27; 2: 17; 3: 43; 4: 32

* * *

- protocol text: Clearance in rat at 5 mg/kg, po and 2 mg/kg, iv
- Format: ADME, organism-based
- study conditions: in vivo
I'd appreciate it if you could supply clearance values for the items below.
One number for each entry, in mL/min/kg.

See these solved cases before continuing.
CCOc1nc(NC(=O)C(C)(C)NC(=O)c2ccc3c(C4CCCC4)c(-c4ccc(F)cn4)n(C)c3c2)ccc1/C=C/C(=O)O; 13.1
CCOc1nc(NC(=O)C2(NC(=O)c3ccc4c(C5CCCC5)c(-c5ccc(F)cn5)n(C)c4c3)CCC2)ccc1/C=C/C(=O)O; 4.9

Task: Look at this molecule and give its reported clearance. CCOc1nc(NC(=O)C2(NC(=O)c3ccc4c(c3)c(C)c(-c3ccc(F)cn3)n4C3CCCCC3)CCC2)ccc1/C=C/C(=O)O
Result: 4.2

* * *

I'd appreciate it if you could supply logD values for the items below.
- protocol text: Lipophilicity, log D of the compound at pH 7.4
- Format: physicochemical
- study conditions: buffer
Answers are plain numbers.

COc1nc(NC(=O)C(C)(C)NC(=O)c2ccc3c(C4CCCC4)c(-c4ccc(Cl)cn4)n(C)c3c2)ccc1/C=C/C(=O)O; 3.9

Attention now shifts to the item below.
Task: Look at this compound and give its reported logD. CCOc1nc(NC(=O)C(C)(C)NC(=O)c2ccc3c(C4CCCC4)c(-c4cncnc4)n(C)c3c2)cnc1/C=C/C(=O)O
Result: 2.2

* * *

- Test system: Hepatitis C virus
- protocol text: Antiviral activity against Hepatitis C virus genotype 1b infected in human Huh cells assessed as inhibition of viral replication by RT-PCR-based replicon assay
- Type: functional, cell-based, Hepacivirus hominis
measurement name: EC50 (nM)
One number for each entry, in nM.

See these solved cases before continuing.
COc1nc(NC(=O)C2(NC(=O)c3ccc4c(C5CCCC5)c(-c5ccc(F)cn5)n(C)c4c3)CCCC2)cnc1/C=C/C(=O)O; 30
CCOc1nc(NC(=O)C2(NC(=O)c3ccc4c(C5CCCC5)c(-c5cnccn5)n(C)c4c3)CCCC2)ccc1/C=C/C(=O)O; 5
COc1nc(NC(=O)C(C)(C)NC(=O)c2ccc3c(C4CCCC4)c(-c4cnccn4)n(C)c3c2)cnc1/C=C/C(=O)O; 55
CCOc1nc(NC(=O)C2(NC(=O)c3ccc4c(C5CCCC5)c(-c5cnccn5)n(C)c4c3)CCC2)ccc1/C=C/C(=O)O; 8

The following molecules each have a reported value; give each one's EC50.
1. CCOc1nc(NC(=O)C(C)(C)NC(=O)c2ccc3c(C4CCCC4)c(-c4ccc(Cl)cn4)n(C)c3c2)ccc1/C=C/C(=O)O
2. CCOc1nc(NC(=O)C(C)(C)NC(=O)c2ccc3c(C4CCCC4)c(-c4ccccn4)n(C)c3c2)ccc1/C=C/C(=O)O

Result:
[5, 2]

The following molecules each have a reported value; give each one's EC50.
1. CCOc1nc(NC(=O)C(C)(C)NC(=O)c2ccc3c(C4CCCC4)c(-c4cncnc4)n(C)c3c2)cnc1/C=C/C(=O)O
2. COc1nc(NC(=O)C2(NC(=O)c3ccc4c(C5CCCC5)c(-c5ccccn5)n(C)c4c3)CCC2)ccc1/C=C/C(=O)O
3. COc1nc(NC(=O)C(C)(C)NC(=O)c2ccc3c(C4CCCC4)c(-c4ncc(Br)cn4)n(C)c3c2)cnc1/C=C/C(=O)O
4. CCOc1nc(NC(=O)C2(NC(=O)c3ccc4c(c3)c(C)c(-c3ccc(F)cn3)n4C3CCCCC3)CCC2)cnc1/C=C/C(=O)O
5. CCOc1nc(NC(=O)C2(NC(=O)c3ccc4c(c3)c(C)c(-c3ccc(F)cn3)n4C3CCCCC3)CCC2)ccc1/C=C/C(=O)O
6. COc1nc(NC(=O)C2(NC(=O)c3ccc4c(C5CCCC5)c(-c5ncc(Cl)cn5)n(C)c4c3)CCC2)ccc1/C=C/C(=O)O
7. COc1nc(NC(=O)C(C)(C)NC(=O)c2ccc3c(c2)c(C)c(-c2ccc(F)cn2)n3C2CCCCC2)ccc1/C=C/C(=O)O
8. CCOc1nc(NC(=O)C2(NC(=O)c3ccc4c(C5CCCC5)c(-c5ccccn5)n(C)c4c3)CCC2)ccc1/C=C/C(=O)O

Result:
1: 82; 2: 15; 3: 23; 4: 12; 5: 9; 6: 9; 7: 3; 8: 11

Task: Look at this molecule and give its reported EC50. CCOc1nc(NC(=O)C(C)(C)NC(=O)c2ccc3c(C4CCCC4)c(-c4ncc(Br)cn4)n(C)c3c2)cnc1/C=C/C(=O)O
Result: 14
